- System under test: human TLR8 (Homo sapiens (Human), UniProt Q9NR97)
- Sequence (Q9NR97 27-1041): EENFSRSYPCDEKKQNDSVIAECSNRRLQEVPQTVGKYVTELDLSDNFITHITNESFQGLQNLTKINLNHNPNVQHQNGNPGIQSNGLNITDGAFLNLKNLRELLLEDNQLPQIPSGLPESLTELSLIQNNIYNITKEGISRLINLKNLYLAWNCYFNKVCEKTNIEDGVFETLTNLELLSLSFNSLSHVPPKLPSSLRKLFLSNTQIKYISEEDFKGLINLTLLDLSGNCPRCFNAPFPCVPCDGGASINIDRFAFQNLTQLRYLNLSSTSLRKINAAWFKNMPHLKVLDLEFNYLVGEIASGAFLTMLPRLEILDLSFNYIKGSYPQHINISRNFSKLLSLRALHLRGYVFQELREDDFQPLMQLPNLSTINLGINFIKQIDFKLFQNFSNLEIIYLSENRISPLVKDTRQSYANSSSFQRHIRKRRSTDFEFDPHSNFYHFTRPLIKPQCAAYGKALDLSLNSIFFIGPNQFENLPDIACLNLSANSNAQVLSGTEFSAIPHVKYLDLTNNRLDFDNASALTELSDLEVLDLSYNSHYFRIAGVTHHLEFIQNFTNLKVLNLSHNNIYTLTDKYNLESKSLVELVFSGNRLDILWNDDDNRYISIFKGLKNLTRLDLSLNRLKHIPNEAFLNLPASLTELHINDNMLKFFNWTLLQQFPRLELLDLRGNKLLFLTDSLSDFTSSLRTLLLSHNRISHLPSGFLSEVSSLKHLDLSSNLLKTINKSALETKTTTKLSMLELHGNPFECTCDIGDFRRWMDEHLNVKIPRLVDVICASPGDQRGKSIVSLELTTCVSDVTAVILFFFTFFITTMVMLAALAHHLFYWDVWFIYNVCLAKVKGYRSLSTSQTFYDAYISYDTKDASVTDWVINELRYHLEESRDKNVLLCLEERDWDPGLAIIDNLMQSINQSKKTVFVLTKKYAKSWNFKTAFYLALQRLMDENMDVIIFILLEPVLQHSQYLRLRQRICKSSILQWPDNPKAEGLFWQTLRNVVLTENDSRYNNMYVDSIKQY
- Assay summary: TLR8 inhibition reporter assay (HEK-Blue cells, SEAP reporter, R848 stimulation);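 note: compounds tested from 0.05 nM to 50 µM, 22 h at 37 °C, SEAP measured with HEK-Blue Detection, inhibition relative to agonist plus DMSO versus a known inhibitor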
- Condition parameters: read-out: TLR8 IC50, HEK-Blue cells overexpressing human TLR8, R848 15.9 μM
Readout name: IC50 (nM)
Give bare numbers, in nM.

Give one value of IC50 per listed compound.
1. Cc1cc(-c2[nH]c3ccc(C4CCN(C(=O)c5ccc6n(c5=O)CCC6)CC4)cc3c2C(C)C)cc(C)n1 [Example 144]
2. Cc1cc(-c2[nH]c3ccc(C4CCN(C(=O)OC(C)C)CC4)cc3c2C(C)C)ccn1 [Example 559]
3. CCOC(=O)N1CCC(c2ccc3[nH]c(-c4ccnc(C)c4)c(C(C)C)c3c2)CC1 [Example 560]

[170, 878, 607]

Fill in the recorded IC50 for this compound, with human TLR8 (Homo sapiens (Human), UniProt Q9NR97) as test system: Cc1cc(-c2[nH]c3ccc(C4CCN(C(=O)c5cscn5)CC4)cc3c2C(C)C)cc(C)n1 [Example 201]
84.1

====

For each record, write down the corresponding IC50.
- System under test: human TLR9 (Homo sapiens (Human), UniProt Q9NR96)
- Sequence (Q9NR96 26-1032): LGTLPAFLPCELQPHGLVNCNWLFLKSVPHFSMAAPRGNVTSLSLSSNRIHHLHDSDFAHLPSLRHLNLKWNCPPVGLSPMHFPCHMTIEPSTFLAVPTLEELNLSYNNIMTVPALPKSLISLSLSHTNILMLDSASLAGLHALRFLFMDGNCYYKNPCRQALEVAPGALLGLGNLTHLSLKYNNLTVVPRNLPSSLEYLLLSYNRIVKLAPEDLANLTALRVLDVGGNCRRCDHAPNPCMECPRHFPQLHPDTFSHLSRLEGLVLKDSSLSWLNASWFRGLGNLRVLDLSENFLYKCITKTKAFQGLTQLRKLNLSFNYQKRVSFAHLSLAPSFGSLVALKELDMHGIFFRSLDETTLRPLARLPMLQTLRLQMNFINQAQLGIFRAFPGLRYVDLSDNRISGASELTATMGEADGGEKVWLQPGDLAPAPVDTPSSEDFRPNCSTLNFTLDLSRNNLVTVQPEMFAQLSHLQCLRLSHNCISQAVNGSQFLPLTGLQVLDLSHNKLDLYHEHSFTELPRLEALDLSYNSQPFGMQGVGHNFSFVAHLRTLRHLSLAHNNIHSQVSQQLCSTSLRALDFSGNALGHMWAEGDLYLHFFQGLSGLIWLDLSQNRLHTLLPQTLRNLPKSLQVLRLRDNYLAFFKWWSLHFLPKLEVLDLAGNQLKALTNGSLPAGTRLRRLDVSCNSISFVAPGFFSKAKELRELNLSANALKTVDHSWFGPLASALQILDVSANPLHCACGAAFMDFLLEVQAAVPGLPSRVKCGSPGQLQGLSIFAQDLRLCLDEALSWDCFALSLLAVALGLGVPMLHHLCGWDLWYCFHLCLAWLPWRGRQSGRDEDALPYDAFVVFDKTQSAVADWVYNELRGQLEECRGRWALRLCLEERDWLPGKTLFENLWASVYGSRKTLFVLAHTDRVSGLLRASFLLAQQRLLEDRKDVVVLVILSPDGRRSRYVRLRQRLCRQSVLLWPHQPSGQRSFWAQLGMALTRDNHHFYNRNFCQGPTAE
- Assay summary: TLR9 inhibition reporter assay (HEK-Blue cells, SEAP reporter, ODN2006 stimulation);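 note: compounds tested over 0.05 nM to 50 µM, 22 h incubation, inhibition taken as SEAP signal drop from agonist plus DMSO wells toward a known inhibitor control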
- Condition parameters: read-out: TLR9 IC50, HEK-Blue cells overexpressing human TLR9, ODN2006 5 nM
Include the unit right after the number.

Tell me the measured IC50 of Cc1cc(-c2[nH]c3ccc(C4CCN(C(=O)CN(C)CCO)CC4)cc3c2C(C)C)c(F)cn1 [Example 680] , please.
2970 nM

Tell me the measured IC50 of Cc1cc(-c2[nH]c3ccc(C4CCN(C(=O)C5(C)COC5)CC4)cc3c2C(C)C)cc(C)n1 [Example 207] , please.
47400 nM

Tell me the measured IC50 of CCc1c(-c2ccnc(-c3nnc[nH]3)c2)[nH]c2ccc(C3CCNCC3)cc12 [Example 66] , please.
554 nM

Tell me the measured IC50 of Cc1cc(-c2[nH]c3ccc(C4CCN(CC(=O)NCCC(C)O)CC4)cc3c2C(C)C)cc(C)n1 (stereo not shown) [Example 262] , please.
715 nM

Tell me the measured IC50 of CNCC(=O)N1CCC(c2ccc3[nH]c(-c4cc(C)nc(C5CC5)c4)c(C(C)C)c3c2)CC1 [Example 508] , please.
592 nM

Tell me the measured IC50 of CC(C)c1c(-c2ccncc2)[nH]c2ccc(C3CCN(C4CCN(C)CC4)CC3)cc12 [Example 525] , please.
190 nM

Give one value of IC50 per listed molecule.
1. Cc1nccc(-c2[nH]c3ccc(C4CCNCC4)cc3c2C(C)C)c1Cl [Example 44]
2. Cc1cc(-c2[nH]c3ccc(C4CCN(C(=O)OC(C)C)CC4)cc3c2C(C)C)ccn1 [Example 559]
3. Cc1nccc(-c2[nH]c3ccc(C4CCN(Cc5ncn(C)n5)CC4)cc3c2C(C)C)c1F [Example 732]
4. CC(C)c1c(-c2ccnc(N)c2)[nH]c2ccc(C3CCNCC3)cc12 [Example 8]
5. COCCOCC(=O)N1CCC(c2ccc3[nH]c(-c4cc(C)nc(C)c4)c(C(C)C)c3c2)CC1 [Example 114]
6. COC[C@@H]1CCCN1CC(=O)N1CCC(c2ccc3[nH]c(-c4cc(C)nc(C)c4)c(C(C)C)c3c2)CC1 [Example 370]
7. Cc1cc(-c2[nH]c3ccc(C4CCN(C5CC(C)OC(C)C5)CC4)cc3c2C(C)C)ccn1 (stereo not shown) [Example 712]

["1640 nM", "13500 nM", "10100 nM", "160 nM", "47200 nM", "889 nM", "1190 nM"]
